assayed.target: T1, 4H797-bN
T1 chain: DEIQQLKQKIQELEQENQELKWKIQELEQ
experiment.summary: two-hybrid library CCNG1;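 note: natural log of median RNA to DNA barcode read ratio; higher means stronger binding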
Friendly reminder: interaction score below -0.5 is Met, at or above is Not met.

Here are 5 binders together with their reported answers.
binder | group
DKNQQLKQENQELKQEIQELEWKIQELKQ [4H3782-bN] | Not met
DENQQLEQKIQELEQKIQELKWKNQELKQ [4H1328-bN] | Met
DKNQQLKQKIQELEQEIQELKWKNQELEQ [4H3855-bN] | Met
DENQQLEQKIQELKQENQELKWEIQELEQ [4H1369-bN] | Met
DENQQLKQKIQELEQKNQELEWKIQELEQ [4H1845-bN] | Met

[in] Regarding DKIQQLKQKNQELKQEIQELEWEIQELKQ [4H3010-bN] , kindly confirm whether its interaction score is beneath -0.5.
[out] Met

[in] Regarding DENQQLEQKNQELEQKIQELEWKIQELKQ [4H1446-bN] , kindly confirm whether its interaction score is beneath -0.5.
[out] Not met

Where these numbers come from: paper PMC10397247
